tested on: Epidermal growth factor receptor (Homo sapiens), P00533 [L861Q]; settings: at 0.1 µM
Sequence (P00533 whole entry L861Q): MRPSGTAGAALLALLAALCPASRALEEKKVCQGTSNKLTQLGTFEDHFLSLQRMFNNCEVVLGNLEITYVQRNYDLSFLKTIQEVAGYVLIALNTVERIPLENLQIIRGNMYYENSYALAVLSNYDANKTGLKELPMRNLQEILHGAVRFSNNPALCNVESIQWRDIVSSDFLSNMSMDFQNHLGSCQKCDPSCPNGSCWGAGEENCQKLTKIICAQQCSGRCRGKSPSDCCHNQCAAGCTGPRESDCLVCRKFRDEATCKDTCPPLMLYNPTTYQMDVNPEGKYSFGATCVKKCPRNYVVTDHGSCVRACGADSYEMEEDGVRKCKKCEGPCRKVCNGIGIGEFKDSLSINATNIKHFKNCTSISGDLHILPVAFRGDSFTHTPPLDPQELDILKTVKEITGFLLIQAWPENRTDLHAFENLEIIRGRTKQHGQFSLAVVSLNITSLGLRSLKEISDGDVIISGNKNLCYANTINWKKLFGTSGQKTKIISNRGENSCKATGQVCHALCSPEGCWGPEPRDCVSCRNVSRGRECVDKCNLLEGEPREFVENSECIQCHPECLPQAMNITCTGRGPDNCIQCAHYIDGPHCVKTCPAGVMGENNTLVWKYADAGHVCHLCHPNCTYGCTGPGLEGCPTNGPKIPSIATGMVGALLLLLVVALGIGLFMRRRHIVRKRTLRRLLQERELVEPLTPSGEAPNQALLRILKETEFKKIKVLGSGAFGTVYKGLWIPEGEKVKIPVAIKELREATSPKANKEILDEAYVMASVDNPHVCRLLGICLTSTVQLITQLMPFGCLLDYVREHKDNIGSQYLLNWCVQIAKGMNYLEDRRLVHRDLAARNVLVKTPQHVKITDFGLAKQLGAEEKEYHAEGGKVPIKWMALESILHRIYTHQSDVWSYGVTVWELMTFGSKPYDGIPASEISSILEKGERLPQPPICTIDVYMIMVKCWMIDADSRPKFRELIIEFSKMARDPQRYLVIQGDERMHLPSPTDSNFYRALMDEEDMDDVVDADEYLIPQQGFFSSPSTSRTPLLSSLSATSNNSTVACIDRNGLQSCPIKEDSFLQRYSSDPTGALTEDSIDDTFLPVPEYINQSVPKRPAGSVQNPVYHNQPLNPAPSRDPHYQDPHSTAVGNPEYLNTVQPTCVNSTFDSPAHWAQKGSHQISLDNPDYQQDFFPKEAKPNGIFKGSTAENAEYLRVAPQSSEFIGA
measure: inhibition (%)
The answer is to be given in %; state only the numeric part.

Solved entries:
CCn1c(-c2nonc2N)nc2c(C#CC(C)(C)O)ncc(OCC3CCNCC3)c21    3.74
COc1cccc(COc2cc(-n3cnc4ccccc43)sc2C(N)=O)c1    -1.17

Look up inhibition: `NC(=O)c1sc(-n2cnc3cc(C(F)(F)F)ccc32)cc1OCc1ccccc1Br`
1.64

// lookup inhibition for `NS(=O)(=O)c1ccc(-c2ccc3c(NC(=O)C4CC4)n[nH]c3c2)cc1`
2.23

Need inhibition, item `NS(=O)(=O)c1ccc(N/C=C2\C(=O)Nc3ccc4ncsc4c32)cc1`
2.44

I'd like to know its inhibition. The molecule in question is `CCn1c(-c2nonc2N)nc2c(C#CCN)ncc(OCCCN)c21`
-0.07
